Origin of values: paper doi:10.1101/2021.07.28.21261232v1

Molecular target: Human Elastase
Conditions: pH 8.0, room temperature, 50 mM Tris, 100 mM NaCl, Brij 35
assayEndpoint: IC50

Look up and report measured IC50 for this entry: CC(C)(C)[C@H](NC(=O)C(F)(F)F)C(=O)N1C[C@H]2[C@@H]([C@H]1C(=O)N[C@H](C#N)C[C@@H]1CCNC1=O)C2(C)C
> 100 µM
